- Test system: edema in the hind paws (carrageenan)
- Experiment description: carrageenan-induced hind paw edema, oral administration
- Type: in vivo, male Wistar rats
- Applied conditions: Rattus norvegicus, 5 mg/kg orally, 4 hr, read-out: Inhibition (%) 4 hr
- Procedure: That is, male Wistar rats weighing about 100 g, one group consisting of 5 to 7 animals, were given orally the compounds according to the present invention and then edema was induced in the hind paws by subcutaneous injections of 0.1 ml of 1% carrageenan 1 hour after the administration of the test compounds, and the volumes of the hind paws were measured by a volume differential meter.
Everything with inhibition in vivo at 5 mg/kg lower than 50% is condition not met; everything else, including exactly 50%, is condition met.

Molecule	Assay system	Assigned class
CCCCC1C(=O)N(c2ccccc2)N(c2ccccc2)C1=O [Phenyl butazone, reference compound]	edema in the hind paws (carrageenan)	condition not met
CC(C(=O)O)c1ccc2c(c1)C(=O)Cc1cccnc1O2 (stereo not drawn) [Compound 26]	edema in the hind paws (carrageenan)	condition not met
COc1ccc2c(c1)c(CC(=O)O)c(C)n2C(=O)c1ccc(Cl)cc1 [Indomethacin, reference compound]	edema in the hind paws (carrageenan)	condition met
O=C(O)c1ccccc1Nc1cccc(C(F)(F)F)c1 [Flufenamic acid, reference compound]	edema in the hind paws (carrageenan)	condition not met
CC(C(=O)O)c1ccc2c(c1)CCc1cccnc1O2 (stereo not drawn) [Compound 27]	edema in the hind paws (carrageenan)	condition met
CCOC(=O)C(C)c1ccc2c(c1)CCc1cccnc1O2 (stereo not drawn) [Compound 28]	edema in the hind paws (carrageenan)	condition met
CC(C(N)=O)c1ccc2c(c1)CCc1cccnc1S2 (stereo not drawn) [Compound 23]	edema in the hind paws (carrageenan)	condition met
CC(C(N)=O)c1ccc2c(c1)CCc1ccccc1S2 (stereo not drawn) [Compound 30]	edema in the hind paws (carrageenan)	condition met
CC(C(N)=O)c1ccc2c(c1)CCc1cccnc1O2 (stereo not drawn) [Compound 29]	edema in the hind paws (carrageenan)	condition met

---

The reader will find reported inhibition in vivo at 10 mg/kg values listed item by item below.
- Test system: edema in the hind paws (carrageenan)
- Experiment description: carrageenan-induced hind paw edema, oral administration
- Format: in vivo, male Wistar rats
- Applied conditions: Rattus norvegicus, 10 mg/kg orally, 4 hr, read-out: Inhibition (%) 4 hr
- Method: That is, male Wistar rats weighing about 100 g, one group consisting of 5 to 7 animals, were given orally the compounds according to the present invention and then edema was induced in the hind paws by subcutaneous injections of 0.1 ml of 1% carrageenan 1 hour after the administration of the test compounds, and the volumes of the hind paws were measured by a volume differential meter.
Measure name: inhibition in vivo at 10 mg/kg

Molecule	Assay system	Reported value
CCOC(=O)C(C)c1ccc2c(c1)Sc1ccccc1CC2 (stereo not shown)	edema in the hind paws (carrageenan)	20.1%
CC(C(N)=O)c1cccc2c1Oc1ccccc1CC2=O (stereo not shown)	edema in the hind paws (carrageenan)	29%
CC(C(=O)O)c1ccc2c(c1)CCc1cccnc1S2 (stereo not shown)	edema in the hind paws (carrageenan)	67%
CCOC(=O)C(C)c1ccc2c(c1)C(=O)Cc1ccccc1S2 (stereo not shown)	edema in the hind paws (carrageenan)	78.2%
CC(C(=O)O)c1ccc2c(c1)Sc1ncccc1CC2 (stereo not shown)	edema in the hind paws (carrageenan)	38.3%
O=C(O)c1ccccc1Nc1cccc(C(F)(F)F)c1 [Flufenamic acid, reference compound]	edema in the hind paws (carrageenan)	29.5%
CCOC(=O)C(C)c1ccc2c(c1)CCc1ccccc1S2 (stereo not shown)	edema in the hind paws (carrageenan)	52.2%
CCOC(=O)C(C)c1ccc2c(c1)C(=O)Cc1ccccc1O2 (stereo not shown)	edema in the hind paws (carrageenan)	70%
CC(C(N)=O)c1ccc2c(c1)CCc1ccccc1O2 (stereo not shown)	edema in the hind paws (carrageenan)	48.7%
CCOC(=O)C(C)c1ccc2c(c1)Sc1ccccc1CC2=O (stereo not shown)	edema in the hind paws (carrageenan)	25.9%
